Data origin: patent US20180127503A1

- study system: T1, human ROR2 expressed on the cell surface (human, UniProt Q01974 34-943)
- T1 construct: Endogenous ROR2 of human tumour cell lines; also called cell surface ROR2; ROR2 on tumour cell lines
- T1 sequence (Q01974 34-943 limits assumed): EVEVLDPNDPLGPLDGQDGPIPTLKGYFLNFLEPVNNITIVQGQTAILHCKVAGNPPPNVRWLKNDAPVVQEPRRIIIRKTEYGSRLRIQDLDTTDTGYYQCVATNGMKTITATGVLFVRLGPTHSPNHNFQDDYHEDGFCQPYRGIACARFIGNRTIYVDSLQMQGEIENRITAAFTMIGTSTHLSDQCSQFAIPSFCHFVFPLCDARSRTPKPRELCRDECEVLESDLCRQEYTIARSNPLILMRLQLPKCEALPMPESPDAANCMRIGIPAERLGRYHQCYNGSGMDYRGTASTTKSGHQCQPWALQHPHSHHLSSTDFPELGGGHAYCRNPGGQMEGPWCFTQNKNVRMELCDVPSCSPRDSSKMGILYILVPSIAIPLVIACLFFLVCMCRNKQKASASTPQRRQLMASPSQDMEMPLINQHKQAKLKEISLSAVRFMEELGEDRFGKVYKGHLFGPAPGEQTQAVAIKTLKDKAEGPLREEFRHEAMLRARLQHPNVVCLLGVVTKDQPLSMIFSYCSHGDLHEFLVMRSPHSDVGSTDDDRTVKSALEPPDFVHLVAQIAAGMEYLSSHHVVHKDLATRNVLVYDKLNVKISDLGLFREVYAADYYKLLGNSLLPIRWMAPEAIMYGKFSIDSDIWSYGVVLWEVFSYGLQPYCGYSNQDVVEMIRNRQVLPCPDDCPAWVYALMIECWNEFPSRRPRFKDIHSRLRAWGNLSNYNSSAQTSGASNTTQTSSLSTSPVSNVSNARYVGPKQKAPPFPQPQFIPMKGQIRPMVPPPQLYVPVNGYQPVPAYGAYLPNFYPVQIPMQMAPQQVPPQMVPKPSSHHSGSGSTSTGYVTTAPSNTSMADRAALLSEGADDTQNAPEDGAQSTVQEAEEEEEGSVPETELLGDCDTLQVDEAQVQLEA
- assay procedure: flow cytometry, HTB132 cells (breast CA)
- Parameters: unit not given here
recorded endpoint: binding intensity

ROR2-90 full length human IgG1 antibody (antibody, V domains shown, also called clone #90; antibody #90) VH: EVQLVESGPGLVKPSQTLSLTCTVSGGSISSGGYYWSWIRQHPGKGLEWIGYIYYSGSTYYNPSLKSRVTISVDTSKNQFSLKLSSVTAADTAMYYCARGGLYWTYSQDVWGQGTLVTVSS VL: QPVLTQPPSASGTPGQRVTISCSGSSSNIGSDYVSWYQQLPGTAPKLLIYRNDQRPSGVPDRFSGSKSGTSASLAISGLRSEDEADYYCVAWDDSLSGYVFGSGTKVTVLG | 5
ROR2-27 full length human IgG1 antibody (antibody, V domains shown, also called clone #27; clone #027 IgG1) VH: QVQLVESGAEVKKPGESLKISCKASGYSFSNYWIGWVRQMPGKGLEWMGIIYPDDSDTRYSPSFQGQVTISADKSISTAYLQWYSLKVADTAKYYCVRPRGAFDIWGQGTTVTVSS VL: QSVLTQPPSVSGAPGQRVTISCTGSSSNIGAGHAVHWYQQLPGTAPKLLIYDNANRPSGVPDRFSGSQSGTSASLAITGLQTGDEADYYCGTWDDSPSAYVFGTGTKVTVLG | 8
ROR2-23 full length human IgG1 antibody (antibody, V domains shown, The light chain of clone 023 is labelled kappa; also called clone #23; clone #023 IgG1) VH: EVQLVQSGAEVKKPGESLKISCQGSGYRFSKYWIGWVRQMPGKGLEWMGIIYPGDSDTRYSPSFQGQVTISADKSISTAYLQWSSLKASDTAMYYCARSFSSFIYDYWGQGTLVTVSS VL: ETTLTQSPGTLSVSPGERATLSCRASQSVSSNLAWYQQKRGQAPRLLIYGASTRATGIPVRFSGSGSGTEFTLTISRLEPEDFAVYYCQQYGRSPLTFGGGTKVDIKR | 5
ROR2-240 full length human IgG1 antibody (antibody, V domains shown, also called clone #240 IgG1) VH: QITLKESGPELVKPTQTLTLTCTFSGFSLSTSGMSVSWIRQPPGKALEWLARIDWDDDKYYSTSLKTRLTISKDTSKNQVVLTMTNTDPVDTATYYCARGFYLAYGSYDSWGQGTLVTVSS VL: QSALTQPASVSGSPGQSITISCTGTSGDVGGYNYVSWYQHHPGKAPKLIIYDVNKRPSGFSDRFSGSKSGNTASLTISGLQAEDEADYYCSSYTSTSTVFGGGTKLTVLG | 4

Here is another binder to look at.
For the binder ROR2-241 full length human IgG1 antibody (antibody, V domains shown) VH: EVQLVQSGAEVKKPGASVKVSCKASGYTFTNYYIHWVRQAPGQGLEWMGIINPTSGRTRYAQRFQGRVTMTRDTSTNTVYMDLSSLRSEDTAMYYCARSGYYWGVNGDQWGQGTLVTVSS VL: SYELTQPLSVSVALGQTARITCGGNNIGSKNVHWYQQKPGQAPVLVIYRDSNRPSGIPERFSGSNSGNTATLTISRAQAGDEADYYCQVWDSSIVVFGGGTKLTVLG , report binding intensity.
45
